molecular target: human RORγ (Homo sapiens, UniProt P51449); construct: human RORγ, from Ser253 to Lys518; expressed in transfected cells; host or cells: CHO cells (Chinese hamster ovary), transient co-transfection with pG5-Luc; test: In vitro assay of inhibitory effect against RORγ transcriptional activity (GAL4-hRORγ LBD luciferase reporter gene assay in CHO cells); assay type: cell-based; conditions: GAL4-hRORγ LBD luciferase reporter, CHO cells; read-out: LUC EC50 hRORγ
Sequence (P51449 253-518): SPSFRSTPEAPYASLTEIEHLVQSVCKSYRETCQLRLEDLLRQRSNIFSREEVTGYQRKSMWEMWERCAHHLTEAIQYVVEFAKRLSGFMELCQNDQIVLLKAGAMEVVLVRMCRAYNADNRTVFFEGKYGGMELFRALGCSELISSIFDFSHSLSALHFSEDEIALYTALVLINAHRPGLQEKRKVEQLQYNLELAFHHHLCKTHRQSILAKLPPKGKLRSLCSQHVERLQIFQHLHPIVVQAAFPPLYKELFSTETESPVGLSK
pEC50: −log10 of the molar value.
Rule: yes (1) for pEC50 not less than 7, no (0) for anything less.

See these solved cases before continuing.
[[record]]
compound = "CC(C)COc1c(F)cc([C@]2(C)NC(=O)N(CCC(=O)O)C=C2C(C)C)cc1Cl [Example 194]"
class = "yes (1)"

[[record]]
compound = "CC(C)(C)CCc1ccc([C@]2(C)NC(=O)N(c3ccc(C(=O)O)cc3)C=C2C2CC(F)(F)C2)cc1Cl [Example 252]"
class = "yes (1)"

[[record]]
compound = "CC(C)C1=CN(CCC(=O)O)C(=O)N[C@@]1(C)c1ccc(CC2CC(F)(F)C2)c(Cl)c1 [Example 282]"
class = "no (0)"

[[record]]
compound = "COC1CC(C2=CN(c3ccc(C(=O)O)cc3)C(=O)N[C@@]2(C)c2ccc(CCC(C)(C)C)c(Cl)c2)C1 (single isomer, unassigned) [Example 277]"
class = "yes (1)"

[[record]]
compound = "COCCC1=CN(c2ccc(C(=O)O)cc2)C(=O)N[C@@]1(C)c1ccc(CCC(C)(C)C)c(C(F)(F)F)c1 [Example 323]"
class = "yes (1)"


Task item: Does the reported pEC50 for CC(C)C1=CN(CCC(=O)O)C(=O)N[C@@]1(C)c1ccc(CC(O)C(C)(C)C)c(Cl)c1 (single isomer, unassigned) [Example 310] fall at or above the 7 mark?
Reply: no (0)

Task item: Also need CC(C)C1=CN(CCC(=O)O)C(=O)N[C@@]1(C)c1ccc(CC2CCC(C)(C)CC2)c(Cl)c1 [Example 286] , thanks.
Reply: no (0)

====

Molecular target: mouse RORγ (Mus musculus, UniProt P51450)
Construct: mouse RORγ, from Ile251 to Lys516; expressed in transfected cells; host or cells: CHO cells (Chinese hamster ovary), transient co-transfection with pG5-Luc
Sequence (P51450 251-516): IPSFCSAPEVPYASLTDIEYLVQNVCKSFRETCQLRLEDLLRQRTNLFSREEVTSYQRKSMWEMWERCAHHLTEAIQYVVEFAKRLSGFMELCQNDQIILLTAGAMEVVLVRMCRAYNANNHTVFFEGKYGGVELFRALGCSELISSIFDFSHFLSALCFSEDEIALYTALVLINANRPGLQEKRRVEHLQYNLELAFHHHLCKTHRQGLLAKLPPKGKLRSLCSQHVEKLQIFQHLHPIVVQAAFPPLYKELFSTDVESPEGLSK
Assay: In vitro assay of inhibitory effect against RORγ transcriptional activity (GAL4-mRORγ LBD luciferase reporter gene assay in CHO cells)
Format: cell-based
Conditions: GAL4-mRORγ LBD luciferase reporter, CHO cells; read-out: LUC EC50 mRORγ
experimental_readout: EC50 (nM)
Give the quantity in nM, number only.

[[record]]
molecule = "C[C@@]1(c2ccc(OCCC3CC3)c(Cl)c2)NC(=O)N(C23CC(C(=O)O)(C2)C3)C=C1C1CC(F)(F)C1 [Example 354]"
units_label = "nM"
meas_value = 144

[[record]]
molecule = "CC(C)C1=CN(Cc2ccc(C(=O)O)cc2)C(=O)N[C@@]1(C)c1ccc(CCC(C)(C)C)c(Cl)c1 [Example 204]"
units_label = "nM"
meas_value = 17

[[record]]
molecule = "CC(C)C1=CN(CCC(=O)O)C(=O)N[C@@]1(C)c1ccc(C=C2CCOCC2)c(Cl)c1 [Example 289]"
units_label = "nM"
meas_value = 773

[[record]]
molecule = "COCCN1C=C(c2cccc(C(=O)O)c2)[C@](C)(c2ccc(CCC(C)(C)C)c(Cl)c2)NC1=O [Example 273]"
units_label = "nM"
meas_value = 75

[[record]]
molecule = "CC(C)C1=CN(C2CCC(C(=O)O)C2)C(=O)N[C@@]1(C)c1ccc(CCC(C)(C)C)c(Cl)c1 (single isomer, unassigned) [Example 279]"
units_label = "nM"
meas_value = 22

[[record]]
molecule = "CC(C)C1=CN(C2CNCC2C(=O)O)C(=O)N[C@@]1(C)c1ccc(CCC(C)(C)C)c(Cl)c1 (single isomer, unassigned) [Example 238]"
units_label = "nM"
meas_value = 666


Consider the record given below.
Task item: State the recorded EC50 for this entry: CC(C)C1=CN(CCC(=O)O)C(=O)N[C@@]1(C)c1ccc(SC2CCCC2)c(Cl)c1 [Example 224]
Reply: 123

====

biological target: mouse RORγ (Mus musculus, UniProt P51450); construct: mouse RORγ, from Ile251 to Lys516; expressed in transfected cells; host or cells: CHO cells (Chinese hamster ovary), transient co-transfection with pG5-Luc; assay: In vitro assay of inhibitory effect against RORγ transcriptional activity (GAL4-mRORγ LBD luciferase reporter gene assay in CHO cells); type: cell-based; details: GAL4-mRORγ LBD luciferase reporter, CHO cells; read-out: LUC EC50 mRORγ
experimental_readout: pEC50
The quantity pEC50 is defined as the negative base-10 logarithm of the molar concentration.

Task item: Reported pEC50, molecule CC(C)(C)CCc1ccc([C@]2(C)NC(=O)N(c3ccc(C(=O)O)cc3)C=C2C2CC(F)(F)C2)cc1C(F)(F)F [Example 342] : ____
Reply: 7.55

Task item: How about this molecule: CC(C)C1=CN(C23CC(C(=O)O)(C2)C3)C(=O)N[C@@]1(C)c1ccc(CCC(C)(C)C)c(C(F)(F)F)c1 [Example 322]
Reply: 7.72

====

target: mouse RORγ (Mus musculus, UniProt P51450); construct: mouse RORγ, from Ile251 to Lys516; expressed in transfected cells; host or cells: CHO cells (Chinese hamster ovary), transient co-transfection with pG5-Luc; test: In vitro assay of inhibitory effect against RORγ transcriptional activity (GAL4-mRORγ LBD luciferase reporter gene assay in CHO cells); format: cell-based; conditions: value in parentheses beside the > EC50 bound; vehicle-control 0.2% DMSO alone = 100%
experimental_readout: mRORγ luciferase activity, %-of-control

// solved cases for mRORγ luciferase activity, %-of-control follow
[[record]]
compound = "CC(C)(C)COc1ccc(C2NC(=O)N(CCCC(=O)O)C=C2C(C)(C)C)cc1Cl (single isomer, unassigned) [Example 6]"
meas_value = "(75%)"

[[record]]
compound = "CC(C)C1=CN([C@H]2C[C@H](C(=O)O)C2)C(=O)N[C@]1(C)c1ccc(CCC(C)(C)C)c(Cl)c1 [Example 41]"
meas_value = "(61%)"

[[record]]
compound = "CC(C)C1=CN(CCC(=O)O)C(=O)N[C@]1(C)c1ccc(CCC2CCCC2)c(Cl)c1 [Example 119]"
meas_value = "(76%)"

[[record]]
compound = "CC(C)C1=CN(CCCC(=O)O)C(=O)N[C@]1(C)c1ccc(CCC2CCC2)c(Cl)c1 [Example 109]"
meas_value = "(67%)"

[[record]]
compound = "CC(C)C1=CN(CCC(=O)O)C(=O)N[C@]1(C)c1ccc(CCC2CCC2)c(Cl)c1 [Example 121]"
meas_value = "(85%)"


Task item: What value of mRORγ luciferase activity, %-of-control has been recorded for this entry: CC(C)(C)CCc1ccc([C@@]2(C)NC(=O)N(CCCC(=O)O)C=C2C2CCCCC2)cc1Cl [Example 31]
Reply: (52%)

Task item: // repeat for CC(C)C1=CN(CCCC(=O)O)C(=O)N[C@]1(C)c1ccc(CCC(C)(C)C)c(Cl)c1 [Example 14] and report
Reply: (59%)

Task item: Field entry: CC(C)C1=CN(CCC(=O)O)C(=O)N[C@]1(C)c1ccc(C2=CCCC2)c(Cl)c1 [Example 148]
Reply: (69%)

Task item: Again, but for CC(C)C1=CN(CCC(=O)O)C(=O)N[C@]1(C)c1ccc(C2CCCC2)c(Cl)c1 [Example 155]
Reply: (81%)

Task item: Consider next the compound CC(C)C1=CN(CCC(=O)O)C(=O)N[C@]1(C)c1ccc(C2=CCC(C)(C)CC2)c(Cl)c1 [Example 115] in the same way.
Reply: (100%)

Task item: Same read-out for CC(C)(C)CCc1ccc(C2NC(=O)N([C@H]3C[C@H](C(=O)O)C3)C=C2C(C)(C)C)cc1Cl (single isomer, unassigned) [Example 102] ?
Reply: (76%)

Task item: Proceed to CC(C)C1=CN(CCC(=O)O)C(=O)N[C@]1(C)c1ccc(CCCC(C)(C)C)c(Cl)c1 [Example 123]
Reply: (100%)

Task item: Quick one: CC(C)C1=CN(CCC(=O)O)C(=O)N[C@]1(C)c1ccc(CCCC(F)(F)F)c(Cl)c1 [Example 128]
Reply: (54%)

Task item: CC(C)C1=CN(CCC(=O)O)C(=O)N[C@]1(C)c1ccc(C2CCC2)c(Cl)c1 [Example 152] ?
Reply: (57%)

Task item: Note, next up: CC(C)C1=CN(CCC(=O)O)C(=O)N[C@]1(C)c1ccc(CCC2CCCCC2)c(Cl)c1 [Example 138]
Reply: (96%)
